# Test system: HOP-62
# Protocol: NCI tumour cell line growth inhibition, 48 h
Calls of active or inactive are those of the source. Rule as the data show it: active = GI50 up to about 1.1 µM and inactive = higher.
Give GI50 for every item shown.

# lookup: GI50 of `O=c1c(C(c2ccc(C(c3c(O)oc4cc(O)ccc4c3=O)c3c(O)oc4cc(O)ccc4c3=O)cc2)c2c(O)oc3cc(O)ccc3c2=O)c(O)oc2cc(O)ccc12`
> 100 µM (inactive)

# lookup: GI50 of `C=C(C(=O)O)[C@@H]1C[C@@H]2O[C@H]1[C@@H](O)[C@@H](C)CCCC(C)=CCC[C@@]2(C)O`
> 100 µM (inactive)

# lookup: GI50 of `CC(=O)C(=[N+]=[N-])C(=O)N1CCOC1=O`
> 10 µM (inactive)

# lookup: GI50 of `CCCCCCCc1c(Cl)nc(Cl)nc1Cl`
18.6 µM (inactive)

# lookup: GI50 of Nc1ncnc2c1ncn2CC(O)C(=O)O (stereo not given)
> 100 µM (inactive)
